Entry source: patent US20180230218A1

- test_target: human cMET (MET, c-Met, HGF receptor) on cells (human) (UniProt P08581)
- Sequence (P08581 25-1390): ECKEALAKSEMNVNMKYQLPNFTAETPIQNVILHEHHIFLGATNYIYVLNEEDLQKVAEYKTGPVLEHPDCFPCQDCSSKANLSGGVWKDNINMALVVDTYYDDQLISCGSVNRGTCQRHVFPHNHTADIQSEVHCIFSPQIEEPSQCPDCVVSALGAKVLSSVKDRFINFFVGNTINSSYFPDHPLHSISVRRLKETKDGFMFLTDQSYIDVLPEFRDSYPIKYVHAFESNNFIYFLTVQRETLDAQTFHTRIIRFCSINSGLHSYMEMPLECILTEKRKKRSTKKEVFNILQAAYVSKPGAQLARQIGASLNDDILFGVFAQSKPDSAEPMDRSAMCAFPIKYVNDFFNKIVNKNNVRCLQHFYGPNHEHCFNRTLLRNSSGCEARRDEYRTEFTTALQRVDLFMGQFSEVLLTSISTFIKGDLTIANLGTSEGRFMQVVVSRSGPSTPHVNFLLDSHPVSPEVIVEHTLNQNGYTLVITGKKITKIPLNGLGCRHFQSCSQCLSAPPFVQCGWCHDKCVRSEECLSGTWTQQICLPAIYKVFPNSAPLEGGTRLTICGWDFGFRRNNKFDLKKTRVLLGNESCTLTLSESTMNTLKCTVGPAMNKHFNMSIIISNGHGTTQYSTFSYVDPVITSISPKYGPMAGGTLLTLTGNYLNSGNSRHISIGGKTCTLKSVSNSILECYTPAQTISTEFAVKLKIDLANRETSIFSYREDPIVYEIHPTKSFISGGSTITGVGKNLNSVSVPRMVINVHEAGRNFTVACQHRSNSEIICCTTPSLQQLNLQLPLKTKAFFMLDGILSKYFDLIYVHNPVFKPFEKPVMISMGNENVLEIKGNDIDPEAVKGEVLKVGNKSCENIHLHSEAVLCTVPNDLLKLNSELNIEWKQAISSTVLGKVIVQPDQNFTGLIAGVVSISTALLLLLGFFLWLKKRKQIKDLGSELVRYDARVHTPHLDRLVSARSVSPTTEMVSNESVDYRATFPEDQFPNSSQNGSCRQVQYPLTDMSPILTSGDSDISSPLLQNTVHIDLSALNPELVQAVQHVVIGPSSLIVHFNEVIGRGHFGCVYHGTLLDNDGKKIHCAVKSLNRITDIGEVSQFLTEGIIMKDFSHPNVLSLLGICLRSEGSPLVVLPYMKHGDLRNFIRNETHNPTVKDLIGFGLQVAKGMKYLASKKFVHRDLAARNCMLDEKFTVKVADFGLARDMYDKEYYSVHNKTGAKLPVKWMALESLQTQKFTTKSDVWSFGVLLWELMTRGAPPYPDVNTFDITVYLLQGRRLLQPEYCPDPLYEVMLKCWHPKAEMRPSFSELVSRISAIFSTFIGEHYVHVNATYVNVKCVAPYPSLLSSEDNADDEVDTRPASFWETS
- method: flow cytometry (FACS) on EBC-1 cells endogenously expressing human cMet, fluorescent secondary antibody
EC50 (read off the curve) overview
observed_property: EC50 (read off the curve) (nM)

binder | observed_property | obs_value
hucMet27v1.2-DGN549 (antibody, human IgG1, kappa, V domains shown, lysine-linked DGN549) VH: EVQLVESGGGLVQPGGSLRLSCAASGFTFSSYDMSWVRQTPGKGLELVATINSNGVSIYYPDSVKGRFTISRDIAKNTLYLQMSSLRAEDTAMYYCAREEITTEMDYWGQGTSVTVSS VL: DIVLTQSPASLAVSPGQRATISCRASESVDSYGNSFIHWYQQKPGQPPKLLIYRASNLESGIPARFSGSGSRTDFTLTINPVEANDVATYYCQQSNEEPLTFGGGTKLELKR | EC50 (read off the curve) | 0.4
hucMet27Gv1.2 (antibody, human IgG1, kappa, V domains shown) VH: EVQLVESGGGLVQPGGSLRLSCAASGFTFSSYDMSWVRQAPGKGLELVATINSNGVSIYYPDSVKGRFTISRDIAKNSLYLQMNSLRAEDTAVYYCAREEITTEMDYWGQGTLVTVSS VL: EIVLTQSPATLSLSPGERATLSCRASESVDSYGNSFIHWYQQKPGQAPRLLIYRASNLESGIPARFSGSGSGTDFTLTISSLEPEDFAVYYCQQSNEEPLTFGQGTKVELKR | EC50 (read off the curve) | 0.5
hucMet27v1.2 (antibody, human IgG1, kappa, V domains shown) VH: EVQLVESGGGLVQPGGSLRLSCAASGFTFSSYDMSWVRQTPGKGLELVATINSNGVSIYYPDSVKGRFTISRDIAKNTLYLQMSSLRAEDTAMYYCAREEITTEMDYWGQGTSVTVSS VL: DIVLTQSPASLAVSPGQRATISCRASESVDSYGNSFIHWYQQKPGQPPKLLIYRASNLESGIPARFSGSGSRTDFTLTINPVEANDVATYYCQQSNEEPLTFGGGTKLELKR | EC50 (read off the curve) | 0.3
